Parameter pest or weed control at 10 ppm: see the listing below.
# System: Puccinia recondita f. sp. tritici
# Measurement protocol: Test B: wheat leaf rust, spray on wheat seedlings, disease control rating
# Assay type: in vivo
# Cond: Puccinia recondita, 192 h; Rate 10 ppm; 100 = 100% disease control, 0 = no disease control relative to the controls
Write down the numeric answer in % and omit the unit.

Below: 4 compounds and their reported pest or weed control at 10 ppm.
Compound string	pest or weed control at 10 ppm, %
COC(=O)NCc1cc(-c2ccn(-c3c(Cl)cc(Cl)cc3Cl)n2)ccc1C	74
COC(=O)NCc1cc(-c2ccn(-c3c(F)cc(F)cc3F)n2)ccc1C	99
COC(=O)NCc1cc(-c2ccn(-c3c(C)cccc3Br)n2)ccc1C	68
COC(=O)NCc1cc(-c2ccn(-c3c(F)cc(SC)cc3F)n2)ccc1C	99

The reported value for COC(=O)NCc1cc(-c2ccn(-c3c(F)cc(CO)cc3F)n2)ccc1C in terms of pest or weed control at 10 ppm is 0

// data source = patent US11634393B2
